Test: LCMS analysis of drug release by tetrazines (TCO-MMAE Compound B)
Conditions: tetrazine 20 μM, Compound B 10 μM, PBS
measurement type: % Compound B consumed (1 h) (%)
Note: unit % is implicit; provide only the numeric part.

What % Compound B consumed (1 h) value was documented for this compound, `Cc1nnc(-c2cn(C)cn2)nn1` ?
74

Follow-up item: `Cc1nnc(-c2cocn2)nn1`
42

And then `Cc1nnc(-c2ccc(C(F)(F)F)c(CN)c2)nn1` , what is it?
100

Same lookup for `Cc1nnc(-c2ccc(CN)c(C(F)(F)F)c2)nn1` , please.
100

What about `Cc1nnc(-c2ccccn2)nn1` ?
100

Please answer likewise for `Cc1nnc(-n2cccn2)nn1`
81

Input `Cc1nnc(-c2ncccn2)nn1`
100

Origin of measurements: patent US20260335446A1
